TESTED ON: High affinity choline transporter 1 (Homo sapiens) (UniProt Q9GZV3)
Sequence (Q9GZV3 whole entry, looked up): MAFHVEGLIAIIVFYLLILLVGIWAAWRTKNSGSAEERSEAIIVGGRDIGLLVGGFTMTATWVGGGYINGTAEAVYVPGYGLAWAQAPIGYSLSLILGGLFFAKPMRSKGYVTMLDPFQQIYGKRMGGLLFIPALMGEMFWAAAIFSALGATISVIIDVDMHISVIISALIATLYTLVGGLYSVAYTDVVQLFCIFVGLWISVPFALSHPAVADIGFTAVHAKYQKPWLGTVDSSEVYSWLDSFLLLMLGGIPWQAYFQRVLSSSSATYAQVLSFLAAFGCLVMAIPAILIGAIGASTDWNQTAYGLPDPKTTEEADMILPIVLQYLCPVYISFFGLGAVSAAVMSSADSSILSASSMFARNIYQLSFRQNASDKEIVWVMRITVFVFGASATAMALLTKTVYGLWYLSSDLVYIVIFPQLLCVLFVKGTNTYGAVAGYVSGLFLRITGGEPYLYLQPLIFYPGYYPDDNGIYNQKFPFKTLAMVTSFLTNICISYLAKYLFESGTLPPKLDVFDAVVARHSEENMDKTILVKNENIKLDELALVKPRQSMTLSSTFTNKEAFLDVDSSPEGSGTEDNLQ
EXPERIMENT NOTES: CHT inhibition at low and high choline, SAR follow-up, mechanism study for choline transporter inhibitor project, cell-based, HEK-293 hCHT LV-AA, [3H]-choline (AID 652215)
EXPERIMENTAL CONDITIONS: [3H]-choline uptake, 15 min, at 5 µM, active compounds read low
RESULT TYPE: activity remaining, low choline (%)

[[record]]
molecule = "COc1ccc(C(=O)NCC2CCOCC2)cc1OC1CCN(C(C)C)CC1"
tested_on = "High affinity choline transporter 1 (Homo sapiens) (UniProt Q9GZV3)"
unit_of_measure = "%"
recorded_value = 80


P = CCc1cc(CNC(=O)c2ccc(OC)c(OC3CCNCC3)c2)on1
Q = COc1ccc(C(=O)NCc2cc(C(C)C)no2)cc1OCC1CCC1
(Q) Among P and Q , which shows a numerically higher activity remaining, low choline result? Label of pick, please.
(A) Q

###

TESTED ON: High affinity choline transporter 1 (Homo sapiens) (UniProt Q9GZV3)
EXPERIMENT NOTES: CHT inhibition at low and high choline, SAR follow-up, mechanism study for choline transporter inhibitor project, cell-based, HEK-293 hCHT LV-AA, [3H]-choline (AID 652215)
EXPERIMENTAL CONDITIONS: [3H]-choline uptake, 15 min, at 5 µM, active compounds read low
RESULT TYPE: activity remaining, low choline (%)

The cases that follow already have their activity remaining, low choline on record.
[[record]]
compound = "COc1ccc(C(=O)NCc2ccon2)cc1OC1CCN(C(C)C)CC1"
result_type = "activity remaining, low choline"
recorded_value = 46

[[record]]
compound = "COc1ccc(C(=O)NCc2cc(C(C)C)no2)cc1OCc1ccncc1"
result_type = "activity remaining, low choline"
recorded_value = 85.9

[[record]]
compound = "COc1ccc(C(=O)NCCCn2cccn2)cc1OC1CCN(C(C)C)CC1"
result_type = "activity remaining, low choline"
recorded_value = 20.4

[[record]]
compound = "COc1ccc(C(=O)NCCc2c[nH]c3ccccc23)cc1OC1CCN(C(C)C)CC1"
result_type = "activity remaining, low choline"
recorded_value = 15.9

[[record]]
compound = "CCc1cc(CNC(=O)c2ccc(OC)c(O)c2)on1"
result_type = "activity remaining, low choline"
recorded_value = 93.7

[[record]]
compound = "COc1ccc(C(=O)NCc2cc(C(C)C)no2)cc1OCC1CCCCC1"
result_type = "activity remaining, low choline"
recorded_value = 87.2

[[record]]
compound = "COc1ccc(C(=O)NCCN2CCOC2=O)cc1OC1CCN(C(C)C)CC1"
result_type = "activity remaining, low choline"
recorded_value = 41.8

[[record]]
compound = "COc1ccc(C(=O)NC2CCCCC2)cc1OC1CCN(C(C)C)CC1"
result_type = "activity remaining, low choline"
recorded_value = 72.2

[[record]]
compound = "CCOc1cc(C(=O)NCc2cc(C(C)C)no2)ccc1OC"
result_type = "activity remaining, low choline"
recorded_value = 93.9

[[record]]
compound = "CCc1cc(CNC(=O)c2ccc(OC)c(OCc3cccnc3)c2)on1"
result_type = "activity remaining, low choline"
recorded_value = 94.5


1 = COc1ccc(C(=O)NCC(C)Oc2cccnc2)cc1OC1CCN(C(C)C)CC1 (stereo not drawn)
2 = COc1ccc(C(=O)NCc2cc(C(C)C)no2)cc1OCc1ccccc1
(Q) Could you determine which record has the numerically smaller activity remaining, low choline? Candidates: 1 and 2 Please indicate the selected item by its label.
(A) 1
(1: 43.1%, 2: 90.8%)

P = COc1ccc(C(=O)NCCc2ccncc2)cc1OC1CCN(C(C)C)CC1
Q = COc1ccc(C(=O)NCc2ccc(Cl)s2)cc1OC1CCN(C(C)C)CC1
(Q) Please let me know which one, P or Q , has a lower measured activity remaining, low choline value. To answer, give the label that identifies your chosen option.
(A) Q

A = COc1ccc(C(=O)NCc2cc(C(C)C)no2)cc1OCc1cccnc1
B = COc1ccc(C(=O)NC(C)c2cn(C)nc2C)cc1OC1CCN(C(C)C)CC1 (stereo not drawn)
(Q) Which has the smaller recorded activity remaining, low choline, A or B ? Please indicate the selected item by its label.
(A) B
